Biological target: T1, Human soluble IL6-R (human, UniProt P08887 20-358)
T1 construct: Bought soluble receptor; biotinylated in some Alphascreen assays; also called sIL6-R; hIL-6R
T1 sequence (looked up): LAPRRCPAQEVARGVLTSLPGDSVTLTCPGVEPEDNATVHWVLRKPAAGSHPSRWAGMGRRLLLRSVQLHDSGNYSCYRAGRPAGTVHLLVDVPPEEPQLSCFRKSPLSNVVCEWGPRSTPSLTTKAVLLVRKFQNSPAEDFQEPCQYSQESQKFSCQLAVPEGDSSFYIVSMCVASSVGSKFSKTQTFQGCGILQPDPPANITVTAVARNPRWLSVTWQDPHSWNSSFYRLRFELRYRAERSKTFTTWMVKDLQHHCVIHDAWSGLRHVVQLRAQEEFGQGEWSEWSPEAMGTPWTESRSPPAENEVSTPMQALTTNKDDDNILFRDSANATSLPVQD
Assay: SPR (Biacore), off-rate
Each item that follows carries a reported koff.
Give the figure together with its unit, number first.

// below: answered binders
Please give the measured koff for this binder: IL6R07 (VHH, also called PMP33A3; PMP 33 A3) VHH: EVQLVESGGGLVQPGGSLRLSCAASGFTLDYGAIGWFRQAPGKEREGVSCISSSTGSTYYADSVKGRFTISRDNGKNTVYLQMNSLKPEDTAVYYCAADKMWSPCLVAANEEALFEYDYWGQGTQVTVSS
0.000242 s⁻¹

Need koff, item IL6R11 (VHH, also called PMP35E11; PMP 35 E11) VHH: EVQLVESGGGLVQAGGSLRLSCAASGFTFDDYAIGWFRQAPGKEHEGVSCISSSDGSTYYADSVKGRFTISSDNAKNTVYLQMNSLKPEDTAVYYCAAERDVPARSLCGSYYWYDYRGQGTQVTVSS
0.000417 s⁻¹

What value of koff has been recorded for this entry: PMP 31 D2 (VHH, also called PMP31D2(t)) VHH: EVQLVESGGGLVQAGGSLRLSCAASGFTFDDYAIGWFRQAPGKEREGVSGISSSDGNTYYADSVKGRFTISSDNAKNTVYLQMNSLKPEDTAVYYCAAEPPDSNWYLDGSPEFFKFWGQGTQVTVSS
0.000281 s⁻¹

Endpoint output: koff of PMP 30 B1 (VHH, also called PMP30B1(t)) VHH: EVQLVESGGGLVQPGGSLRLSCAASGFTLDYYAIGWWRQAPGKGREGVSCISSGDGSTNYADSVKGRFTISRDNAKNTVYLQMNSLKPEDTAVYYCATDRSVYYCSGGAPEEYYWGQGTQVTVSS . Value?
0.001 s⁻¹

# koff lookup, item PMP 28 H6 (VHH, also called PMP28H6(t)) VHH: EVQLVESGGGLVQPGGSLRLSCAASGFTFGSYDMSWVRQAPGKGPEWVSAINSGGGSTYYADSVKGRFTISRDNAKNTLYLQMNSLKPEDTAVYYCATDWRYSDYDLPLPPPGDYWGQGTQVTVSS
0.00247 s⁻¹

New cases:
Bench note: what koff did PMP 34 G3 (VHH) VHH: EVQLVESGGGLVQPGGSLRLSCAASGFTLDYYAIGWFRQAPGKERERVSCISSSDGSTYYADSVKGRFTISRDNAKNTVYLQMNSLKPEDTAAYYCATDRSVYYCSGGAPEEYYWGQGTQVTVSS show?
0.00014 s⁻¹

# input binder: PMP 28 D4 (VHH, also called PMP28D4(t)) VHH: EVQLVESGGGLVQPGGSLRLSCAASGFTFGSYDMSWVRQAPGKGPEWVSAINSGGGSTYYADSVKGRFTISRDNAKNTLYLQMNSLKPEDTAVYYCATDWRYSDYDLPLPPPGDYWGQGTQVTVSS ; wanted: its koff
0.00185 s⁻¹

# query: koff of entry PMP 34 D2 (VHH, also called PMP34D2(t)) VHH: EVQLVESGGGLVQPGGSLRLSCAASGFTLDYFAIGWFRQAPGKERERVSCISSSDGSTYYADSVKGRFTISRDNAKNTVYLQMNSLKPEDTAVYYCATDRSVYYCSGGAPEEYYWGQGTQVTVSS
0.000331 s⁻¹

Provenance of the data: patent US20140221623A1
